The measured values listed here are drawn from patent US8598365B2.

pest or weed control at 250 g/ha for assorted molecules
- Tested on: Avena fatua (AVEFA)
- assay_overview: Example B post-emergence herbicidal activity
- Type: in vivo
- condition_description: 312 h, rate 250 g/ha, evaluated after 13 days, read-out: Post-emergence activity AVEFA (100=total damage to plant; 0=no damage to plant)
experimental_endpoint: pest or weed control at 250 g/ha

INSERT INTO measurements (molecule, result) VALUES
  ('Cc1sc(-c2ccsc2)nc1C1C(=O)[C@@H]2CC[C@@H](C2)C1=O (stereo partly shown)', '0%'),
  ('Cc1sc(-c2ccc(Cl)c(Cl)c2)nc1C1C(=O)[C@@H]2CC[C@@H](C2)C1=O (stereo partly shown)', '0%'),
  ('CCc1sc(-c2ccc(C(F)(F)F)cc2)nc1C1C(=O)[C@@H]2CC[C@@H](C2)C1=O (stereo partly shown)', '100%'),
  ('CCc1sc(-c2ccc(Cl)cc2F)nc1C1C(=O)[C@@H]2CC[C@@H](C2)C1=O (stereo partly shown)', '100%'),
  ('Cc1cc(Br)ccc1-c1nc(C2=C(OC(=O)C(C)(C)C)[C@@H]3CC[C@@H](C3)C2=O)c(C)s1', '90%'),
  ('Cc1nc(-c2ccc(Cl)c(Cl)c2)sc1C1C(=O)[C@@H]2CC[C@@H](C2)C1=O (stereo partly shown)', '0%'),
  ('Cc1sc(-c2ccc(Cl)cc2C(F)(F)F)nc1C1C(=O)[C@@H]2CC[C@@H](C2)C1=O (stereo partly shown)', '0%'),
  ('CCc1sc(-c2ccc(Cl)c(Cl)c2)nc1C1C(=O)[C@@H]2CC[C@@H](C2)C1=O (stereo partly shown)', '90%'),
  ('CC(=O)OC1=C(c2nc(-c3ccc(Br)cn3)sc2C)C(=O)[C@H]2CC[C@@H]1C2', '80%'),
  ('Cc1sc(CC(C)C)nc1C1C(=O)[C@@H]2CC[C@@H](C2)C1=O (stereo partly shown)', '0%'),
  ('C=Cc1ccc(-c2nc(C3C(=O)[C@@H]4CC[C@@H](C4)C3=O)c(CC)s2)cc1 (stereo partly shown)', '100%'),
  ('Cc1sc(-c2cc(Cl)ccc2Cl)nc1C1C(=O)[C@@H]2CC[C@@H](C2)C1=O (stereo partly shown)', '0%'),
  ('CCc1sc(-c2ccc(Cl)c(C)c2)nc1C1C(=O)[C@@H]2CC[C@@H](C2)C1=O (stereo partly shown)', '90%'),
  ('Cc1sc(-c2ccc(Cl)s2)nc1C1C(=O)[C@@H]2CC[C@@H](C2)C1=O (stereo partly shown)', '0%'),
  ('CCc1sc(-c2ccc(C(=O)OC)cc2)nc1C1C(=O)[C@@H]2CC[C@@H](C2)C1=O (stereo partly shown)', '0%'),
  ('Cc1cnc(-c2ccc(Cl)cc2)nc1C1C(=O)[C@@H]2CC[C@@H](C2)C1=O (stereo partly shown)', '0%');

###

- System: Avena fatua (AVEFA)
- assay_overview: Example B post-emergence herbicidal activity
- Format: in vivo
- condition_description: 312 h, rate 250 g/ha, evaluated after 13 days, read-out: Post-emergence activity AVEFA (100=total damage to plant; 0=no damage to plant)
Decision: pest or weed control at 250 g/ha beneath 80% gives Y; pest or weed control at 250 g/ha meeting or exceeding 80% gives N.

INSERT INTO measurements (compound, group) VALUES
  ('Cc1cc(Br)ccc1-c1nc(C2C(=O)[C@@H]3CC[C@@H](C3)C2=O)c(C)s1 (stereo partly shown)', 'N'),
  ('COCOc1ccc(-c2nc(C3C(=O)[C@@H]4CC[C@@H](C4)C3=O)c(C)s2)cc1 (stereo partly shown)', 'Y'),
  ('Cc1sc(-c2ccc3ccccc3c2)nc1C1C(=O)[C@@H]2CC[C@@H](C2)C1=O (stereo partly shown)', 'Y'),
  ('Cc1sc(-c2ccc(C=O)cc2)nc1C1=C(OC(=O)C(C)(C)C)[C@H]2CC[C@H](C2)C1=O', 'Y'),
  ('CCc1sc(-c2ccc(C)cc2)nc1C1C(=O)[C@@H]2CC[C@@H](C2)C1=O (stereo partly shown)', 'N'),
  ('Cc1ccc(-c2nc(C3C(=O)[C@@H]4CC[C@@H](C4)C3=O)c(C)s2)cc1 (stereo partly shown)', 'Y'),
  ('CCc1sc(-c2ccccc2)nc1C1C(=O)[C@@H]2CC[C@@H](C2)C1=O (stereo partly shown)', 'Y'),
  ('Cc1sc(-c2ccc(F)cc2)nc1C1C(=O)[C@@H]2CC[C@@H](C2)C1=O (stereo partly shown)', 'Y'),
  ('CCc1sc(-c2ccc(Cl)cc2Br)nc1C1C(=O)[C@@H]2CC[C@@H](C2)C1=O (stereo partly shown)', 'N'),
  ('CCc1sc(-c2ccc(Br)cc2)nc1C1C(=O)[C@@H]2CC[C@@H](C2)C1=O (stereo partly shown)', 'N'),
  ('CCc1sc(-c2cnc(Cl)cc2C)nc1C1C(=O)[C@@H]2CC[C@@H](C2)C1=O (stereo partly shown)', 'Y'),
  ('CCc1sc(-c2ccc(OC(F)F)cc2)nc1C1C(=O)[C@@H]2CC[C@@H](C2)C1=O (stereo partly shown)', 'N'),
  ('CCc1sc(-c2cc(F)c(OC)cc2F)nc1C1C(=O)[C@@H]2CC[C@@H](C2)C1=O (stereo partly shown)', 'N'),
  ('Cc1sc(-c2ccc(C#N)cc2)nc1C1C(=O)[C@@H]2CC[C@@H](C2)C1=O (stereo partly shown)', 'Y'),
  ('COc1ccc(-c2nc(C3C(=O)[C@@H]4CC[C@@H](C4)C3=O)c(C)s2)cc1F (stereo partly shown)', 'Y');
